Test system: MOLT-4 leukemia
assayNotes: NCI-60 one-dose screen, 48 h
assayContext: 10 µM unless noted
This is part of a sample that, as a whole, favours compounds with a hit. Of some 83,000 tested, about 20% had one in any assay. Activity calls are given as the source filed them. How the source made its calls: active means growth percent below 10; inactive means the rest.
Hi there, use one of these labels in your reply, thanks! TRUE for active, FALSE for inactive

Consider the worked cases shown below.
# compoundString, answerLabel
data = [
    ("CNC(=O)c1cc(N2CCc3cc(NC(=O)Nc4ccc(N5CCN(C)CC5)c(C(F)(F)F)c4)ccc32)ccn1", "FALSE"),
    ("O=C(/C=C/c1csc(Br)n1)NO", "TRUE"),
    ("CCOC(=O)c1c(N)c(C#N)cn1Cc1ccc(Cl)cc1Cl", "FALSE"),
    ("O=c1c2cc(-c3ccc(F)cc3F)ccc2n(Nc2ccccc2)c(=O)n1-c1cccc(C(F)(F)F)c1", "TRUE"),
]

Now look at this entry.
## Task So what was the verdict on `CCOC(=O)c1c(NC(=O)c2ccc(C(F)(F)F)cc2)sc2c3c(ccc12)OCN(C)C3` in this test?
## Result TRUE

---

System: CAKI-1 renal
assayNotes: NCI-60 one-dose screen, 48 h (100 = growth as untreated, 0 = no growth, -100 = all killed)
assayContext: 10 µM unless noted
This is part of a sample that, as a whole, favours compounds with a hit. Of some 83,000 tested, about 20% had one in any assay.
propertyLabel: growth (%)
Give a bare numeral; the unit % is implied.

# compound, testValue
rows = [
    ("O=C(CSc1cc[n+](CCCCO)c2ccccc12)n1ccc2ccccc21", 81.9),
    ("COc1ccc([C@@H]2C(=O)N(c3cc(OC)c(OC)c(OC)c3)[C@H]2c2ccc(OC)c(O)c2)cc1", 21),
    ("CC1CC(=O)C2=C(C1)Nc1ccc(Br)cc1CC2c1c[nH]c2ccc(Br)cc12 (stereo not given)", 38.1),
    ("O=C(CSc1nnc(-c2ccc(Cl)cc2)n1-c1ccccc1)Nc1cccc(F)c1", 14.1),
    ("FC(F)(F)c1cc(Br)cc(-c2cc(-c3ccc4c(c3)OCCO4)[nH]n2)c1", 33.3),
]

## Task Can you look up the measured growth of `CCN(CC)c1ccc(/C=N/NC(=O)c2ccc(S(N)(=O)=O)cc2)cc1` for me?
## Result 23

## Task Can you look up the measured growth of `C#Cc1nc(/C=C/C(=O)NO)cs1` for me?
## Result -94.9

## Task Can you look up the measured growth of `O=C(Nc1ccc(N=Cc2c(O)[nH]c3ccccc23)cc1)Nc1ccc(S(=O)(=O)Nc2ncccn2)cc1` for me?
## Result 94.8

## Task Can you look up the measured growth of `Brc1cc(-c2cc(-c3ccc4c(c3)OC=CO4)[nH]n2)cs1` for me?
## Result 63.8

## Task Can you look up the measured growth of `Cc1cc2nc(C(Cl)Cl)nc(-c3ccc(S(=O)(=O)N(C)C)cc3)n2n1` for me?
## Result 45

---

Recorded growth, one value per entry.
Test system: TK-10 renal
assayNotes: NCI-60 one-dose screen, 48 h (100 = growth as untreated, 0 = no growth, -100 = all killed)
assayContext: 10 µM unless noted
About 83,000 compounds went through this panel and 20% of them were active in at least one assay; those are over-represented in the sample as a whole.
Give a bare numeral; the unit % is implied.

Known results for compounds:
# compound, growth / %
records = [
    ("CC(=O)OC[C@]12CC[C@@H](C(=O)/C=C/c3cccnc3)[C@@H]1[C@H]1CC[C@@H]3[C@@]4(C)CC[C@H](OC(C)=O)C(C)(C)[C@@H]4CC[C@@]3(C)[C@]1(C)CC2", 38.5),
    ("Cc1ccc2c(n1)C(=O)C(Cl)=C(Nc1cccc(C(=O)OC(C)(C)C)c1)C2=O", 120),
    ("CC[C@]12C=CCN3CC[C@]4(C(=C(C(=O)OC)C1)Nc1cc5c(cc14)[C@@H]1[C@H](O5)[C@@H](O)[C@@]4(CC)CC(C(=O)OC)=C5Nc6cc(O)ccc6[C@@]56CCN1C46)C32 (stereo partly drawn)", -9.16),
]

Then there is this compound:
## Task Can you look up the measured growth of CCCCN1C(=O)/C(=c2\sc3n(c2=O)C2C(NN=3)N(CC)C(=O)N2CC)c2cc(C)ccc21 (stereo not drawn) for me?
## Result 117

---

Recorded growth, one value per entry.
Tested on: SK-MEL-5 melanoma
assayNotes: NCI-60 one-dose screen, 48 h (100 = growth as untreated, 0 = no growth, -100 = all killed)
assayContext: 10 µM unless noted
This is part of a sample that, as a whole, favours compounds with a hit. Of some 83,000 tested, about 20% had one in any assay.
Give a bare numeral; the unit % is implied.

# compoundString, unit, growth
data = [
    ("Cc1cc(=O)oc2cc(OCCCOc3ccc(/C=C/C(=O)Nc4ccc(Br)cc4)cc3)ccc12", "%", 85),
    ("Cc1csc(/N=C(N)/N=C(\\N)c2cccc(Br)c2)n1", "%", 97.6),
    ("COC(=O)c1cccc(NC2=CC(=O)C(C)=C(C)C2=O)c1", "%", 96.3),
    ("Clc1cccc(/C=N/Nc2nc(N/N=C/c3cccc(Cl)c3)nc(N3CCOCC3)n2)c1", "%", 44.1),
    ("COC(=O)c1cccc(NC2=C(Cl)C(=O)C(C)=C(C)C2=O)c1", "%", 95.6),
    ("N#C/C(=C\\c1ccc(-c2ccc(Cl)c(Cl)c2)o1)C(=O)Nc1ncc(Cc2ccc(Cl)cc2)s1", "%", 80.4),
    ("Cn1ncc2ncc(-c3ccc4ncc(C#N)c(N5CCc6cc(F)c(Cl)cc65)c4c3)cc21", "%", 39.5),
    ("N#C/C(=C\\c1cccc2c1OCO2)C(=O)Nc1sc2c(c1C#N)CCCC2", "%", 101),
]

Then there is this compound:
## Task Can you look up the measured growth of `O=C(CN1CCN(c2cc(=O)[nH]c3ccc(F)cc23)CC1)N(c1ccccc1)c1ccccc1` for me?
## Result 100

---

Recorded growth, one value per entry.
Tested on: HOP-62 NSCLC
assayNotes: NCI-60 one-dose screen, 48 h (100 = growth as untreated, 0 = no growth, -100 = all killed)
assayContext: 10 µM unless noted
About 83,000 compounds went through this panel and 20% of them were active in at least one assay; those are over-represented in the sample as a whole.
Give a bare numeral; the unit % is implied.

Known results for compounds:
# compoundString, propertyLabel, testValue
data = [
    ("FC(F)(F)c1cc(Br)cc(-c2cc(-c3ccc4c(c3)OCCO4)[nH]n2)c1", "growth", 52.2),
    ("COc1cc(C(=O)c2cc(C(C)=O)c3ccc(C)cn23)cc(OC)c1OC", "growth", 52.4),
    ("O=C(CCCCCCNC(=O)C(O)(O)C(F)(F)F)Nc1ncc(-c2ccc(Br)cc2)s1", "growth", -6.49),
]

## Task Can you look up the measured growth of `Cc1cc(Br)ccc1-n1cc(C#N)c(N)c1C(=O)c1ccc(Br)cc1` for me?
## Result 103

## Task Can you look up the measured growth of `CN1CCN(c2ccc(Nc3nc(NCCNC(=O)c4ccccc4)c4sccc4n3)cc2)CC1` for me?
## Result 104

## Task Can you look up the measured growth of `Cc1ccc(N2CCN(C3=C(Cl)C(=O)c4ncccc4C3=O)CC2)cc1` for me?
## Result 73.1

## Task Can you look up the measured growth of `CCc1cc(OC(=O)N2CCC(N3CCCCC3)CC2)ccc1Nc1cc(-c2ccc(-n3cccn3)cc2)[nH]n1` for me?
## Result 66.3

## Task Can you look up the measured growth of `Cc1ccc(-c2csc(N/N=C/c3cccs3)n2)cc1` for me?
## Result 95.3

## Task Can you look up the measured growth of `O=c1oc2ccc(-c3ccc(F)cc3F)cc2c(=O)n1-c1ccc(Br)cc1F` for me?
## Result 82.9

## Task Can you look up the measured growth of `CN1CCN(c2ccc(Nc3nc(NCCCNS(=O)(=O)c4ccc(F)cc4)c4sccc4n3)cc2)CC1` for me?
## Result 91.5

---

Test system: MALME-3M melanoma
assayNotes: NCI-60 one-dose screen, 48 h
assayContext: 10 µM unless noted
Compounds without any hit were thinned out: in the full panel of roughly 83,000, 20% have a hit. Calls of active or inactive are those of the source. Rule for the calls: active = growth percent below 10; inactive = the rest.
Hi there, use one of these labels in your reply, thanks! Yes (active), No (inactive)

Consider the worked cases shown below.
# compound, answerLabel
measured = [
    ("N#Cc1cccc(-c2cc(-c3ccc4c(c3)OCCO4)[nH]n2)c1", "No"),
    ("C#Cc1nc(/C=C/C(=O)NO)cs1", "Yes"),
    ("CC(=O)N1N=C(c2cc3ccccc3oc2=O)CC1c1cn(-c2ccccc2)nc1-c1ccc(C)cc1 (centres undefined)", "No"),
    ("Nn1c(=O)n(-c2cccc(C(F)(F)F)c2)c(=O)c2cc(-c3ccc(F)cc3F)ccc21", "Yes"),
    ("O=c1c2cc(-c3ccc(F)cc3F)ccc2n(O)c(=O)n1-c1cccc(C(F)(F)F)c1", "Yes"),
    ("CCCCCCNC(=O)Oc1ccc(/C(=C(/C)c2ccc(OC)cc2)c2ccc(OCCN3CCCCCC3)cc2)cc1", "Yes"),
    ("C#CCN(C)CCCOc1ccc(NC(=O)CCCCCCCCC(=O)NO)cc1Cl", "No"),
    ("Cn1ncc2ncc(-c3ccc4ncc(C#N)c(N5CCc6cc(F)c(Cl)cc65)c4c3)cc21", "No"),
]

## Task So what was the verdict on `CCC(=C(c1ccc(OCCN(C)C)cc1)c1ccc(OCCN(C)C)cc1)c1ccc(Cl)cc1` in this test?
## Result Yes

## Task So what was the verdict on `NS(=O)(=O)c1ccc(Nc2nc(N/N=C/C=C/c3ccccc3)nc(Nc3ccccc3)n2)cc1` in this test?
## Result No

## Task So what was the verdict on CCCc1cc2cc(-n3nc(CC)c4c3CC(C)(C)CC4=O)cc(NC3CCC(O)CC3)c2c(=O)[nH]1 (centres undefined) in this test?
## Result Yes

## Task So what was the verdict on `CN1CCN(c2ccc(Nc3nc(NCCCNS(=O)(=O)c4ccc(F)cc4)c4sccc4n3)cc2)CC1` in this test?
## Result Yes

## Task So what was the verdict on `C/C(=N\NC(=O)/C=C/CC(=O)O)c1nnn(-c2ccc([N+](=O)[O-])cc2)c1C` in this test?
## Result No

## Task So what was the verdict on `Clc1ccc2[nH]cc(-c3nn4cc(-c5ccncc5)nc4s3)c2c1` in this test?
## Result No

## Task So what was the verdict on `CN1CCN(Cc2ccc(NC(=O)c3cncc(C#Cc4cnc5ccc(OCCCS(C)(=O)=O)nn45)c3)cc2C(F)(F)F)CC1` in this test?
## Result Yes

## Task So what was the verdict on `CCc1cc(OC(=O)N2CCC(N3CCCCC3)CC2)ccc1Nc1cc(-c2ccc(-n3cccn3)cc2)[nH]n1` in this test?
## Result Yes

## Task So what was the verdict on `CCCCSC1=C(Cl)CN(c2ccccc2)C1=O` in this test?
## Result No

## Task So what was the verdict on `Fc1cccc(Cl)c1/C=N/Nc1nc(N/N=C/c2c(F)cccc2Cl)nc(N2CCCCC2)n1` in this test?
## Result Yes

## Task So what was the verdict on `CC(=O)c1cc(C(=O)N2c3ccccc3Sc3ccccc32)n2c1ccc1ccccc12` in this test?
## Result No
